Assay: inhibition of 3D7 malaria parasite growth – strain 3D7 (AID 2306);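 note: 0% = DMSO wells and 100% = chloroquine plus artemisinin control wells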
Conditions: P. falciparum 3D7 erythrocytic growth, LDH absorbance, 72 h; at 2 µM; stronger effect = higher value
Reported growth inhibition values for the following compounds.
// note: answer is a bare numeric in %

See these solved cases before continuing.
Compound | Measured attribute | Result
CCCCCCC(C)(C)c1cc(O)c2c(c1)OC(C)(C)c1ccncc1-2 | growth inhibition | 95
Oc1ccccc1CNCC(O)c1cc(C(F)(F)F)cc(C(F)(F)F)c1 (stereo not given) | growth inhibition | 99
CC(Cc1ccc(Oc2ccc(Cl)cc2)cc1)NCC(O)c1cccc(Cl)c1 (stereo not given) | growth inhibition | 99
CC[C@H]1CN2CC[C@H]1C[C@H]2[C@H](O)c1cc(/C=C/c2ccccc2)nc2ccc(OC)cc12 | growth inhibition | 99
COc1cccc(C=CC(=O)NC2CCC(CN3CCC(c4c[nH]c5ccccc45)CC3)CC2)c1OC (stereo not given) | growth inhibition | 102

Ask | Any idea what its growth inhibition is? The compound is COC(=O)c1ccc(CC(C)NCC(O)c2cccc(OC(F)(F)F)c2)cc1 (stereo not given)
Reply | 98

Ask | Any idea what its growth inhibition is? The compound is COc1ccc(OC)c([C@H](O)[C@@H](C)NCc2cc(Cl)ccc2O)c1
Reply | 97

Ask | Any idea what its growth inhibition is? The compound is COc1ccc(CC(C)NCC(O)c2ccc(Cl)c(Cl)c2)cc1 (stereo not given)
Reply | 98

Ask | Any idea what its growth inhibition is? The compound is COC(=O)/C=C/c1ccc(C[C@@H](C)NC[C@H](O)c2cccc(C(F)(F)F)c2)cc1
Reply | 97

Ask | Any idea what its growth inhibition is? The compound is O=C(Cc1cc(=O)oc2cc(O)ccc12)NC1CCC(CN2CCC(c3c[nH]c4ccccc34)CC2)CC1 (stereo not given)
Reply | 96

* * *

Experiment: sensitizers of A549 cells to miR-34 induction, primary screen, imaging, A549 dox-inducible miR-34, nuclei and caspase counts (AID 1347080)
Settings: A549 miR-34 inducible, Hoechst nuclei count, 48 h; measured here: total cells with miR-34 induction; stronger effect = lower value
Reported cell count values for the following compounds.
Simply state the number, no unit and no words.

Compound | cell count
C[C@]12CCC3C4CCC(=O)C=C4CCC3C1CCC2O (some centres not stated) | 7980

Ask | Any idea what its cell count is? The compound is CCNCC(O)c1cccc(O)c1 (configuration not stated)
Reply | 9690

Ask | Any idea what its cell count is? The compound is CNCCCCCCN(C)N(O)N=O
Reply | 6040

Ask | Any idea what its cell count is? The compound is NCC(CS(=O)(=O)O)c1ccc(Cl)cc1 (configuration not stated)
Reply | 9200

Ask | Any idea what its cell count is? The compound is CCCCC[C@@H](/C=C/C=C\C/C=C\C/C=C\CCCC(=O)O)OO
Reply | 5790

Ask | Any idea what its cell count is? The compound is COc1cc(-n2c(=S)[nH]c3ccccc3c2=O)c(Cl)cc1Cl
Reply | 6620

* * *

Reported remaining activity values for the following compounds.
Test system: Aerobactin synthetase IucA (Klebsiella pneumoniae, hypervirulent)
Experiment: IucA enzyme inhibition, biochemical, LOPAC library, absorbance readout (AID 1346212);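 note: 100% = no compound wells and 0% = no enzyme wells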
Conditions: IucA enzyme assay, absorbance (OD) readout; stronger effect = lower value; concentration not given here
// note: answer is a bare numeric in %

Ask | Any idea what its remaining activity is? The compound is C[C@]12CCC(=O)C=C1CC[C@@H]1[C@@H]2[C@@H](O)C[C@@]2(C)[C@H]1CC[C@]2(O)C(=O)COC(=O)CCC(=O)O
Reply | 92.9

Ask | Any idea what its remaining activity is? The compound is CN(C)[C@@H]1C(=O)C(C(N)=O)=C(O)[C@@]2(O)C(=O)C3=C(O)c4c(O)ccc(Cl)c4[C@@H](O)[C@H]3C[C@@H]12
Reply | 92.3

Ask | Any idea what its remaining activity is? The compound is C[C@]12CCC(=O)C=C1CC[C@@H]1[C@@H]2CC[C@@]2(C)[C@H]1CC[C@]2(O)C(=O)CO
Reply | 110

Ask | Any idea what its remaining activity is? The compound is CC1=NS(=O)(=O)c2cc(Cl)ccc2N1
Reply | 105

Ask | Any idea what its remaining activity is? The compound is COc1ccccc1N1CCN(CCN(C(=O)c2ccc(F)cc2)c2ccccn2)CC1
Reply | 117

Ask | Any idea what its remaining activity is? The compound is C1CCc2nnnn2CC1
Reply | 107

* * *

Assay: ovarian cancer cell viability with rucaparib, profiling panel, oncology-focused library, rucaparib conditional (AID 1508598)
Settings: patient-derived ovarian cancer cells, CellTiter-Glo viability, 144 h; at 0.313 µM; OCI-C5x cells; without rucaparib
Activity calls are given as the source filed them.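 How the source made its calls: active means normalized viability below 100% at a tested concentration; inactive means the rest.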
Outcome field: choose from Yes for active, No for inactive

Solved entries:
Molecule | Label class
Cc1c(N)nc([C@H](CC(N)=O)NC[C@@H](N)C(N)=O)nc1C(=O)N[C@H](C(=O)N[C@@H](C)[C@H](O)[C@@H](C)C(=O)N[C@@H](C(=O)NCCc1nc(-c2nc(C(=O)NCCC[S+](C)C)cs2)cs1)[C@@H](C)O)C(O[C@H]1O[C@H](CO)[C@H](O)[C@@H](O)[C@H]1O[C@H]1O[C@H](CO)[C@@H](O)[C@H](OC(N)=O)[C@@H]1O)c1cnc[nH]1 (stereo partly specified) | Yes
Cn1c(CCCC(=O)O)nc2cc(N(CCCl)CCCl)ccc21 | No
C/C(=C\c1csc(C)n1)[C@H]1C[C@@H]2O[C@@H]2CCC[C@H](C)[C@H](O)[C@@H](C)C(=O)C(C)(C)[C@H](O)CC(=O)O1 | Yes
Cc1sc2c(c1C)C(c1ccc(Cl)cc1)=N[C@@H](CC(N)=O)c1nnc(C)n1-2 | Yes
Cn1cc(C2=C(c3cn(C4CCN(Cc5ccccn5)CC4)c4ccccc34)C(=O)NC2=O)c2ccccc21 | No

Kindly consider the entry below.
Ask | Per the assay record, what outcome was assigned to O=S(=O)(CC1CS1)c1ccc(Oc2ccccc2)cc1 (stereo unspecified) ?
Reply | No

* * *

Experiment: JHH-DIPG-1 glioma cell viability, MIPE5.0 library, CellTiter-Glo luminescence, qHTS (AID 1347067);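 note: cells exposed to compound for 48 hours before readout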
Conditions: JHH-DIPG-1 glioma viability, CellTiter-Glo ATP luminescence
Records with an inconclusive call do not appear. The source made the active and inactive calls. Cut-off not given; nearly all actives show AC50 up to about 26 µM.
Outcome field: choose from active, inactive

Solved entries:
Molecule | Label class
C=C1C[C@@H]2[C@H](CC[C@]3(C)C(=O)CC[C@@H]23)[C@@]2(C)C=CC(=O)C=C12 | inactive
CC(=O)O[C@@]12CO[C@@H]1C[C@H](O)[C@@]1(C)C(=O)[C@H](O)C3=C(C)[C@@H](O)C[C@@](O)([C@@H](OC(=O)c4ccccc4)[C@H]21)C3(C)C | inactive
COc1ccc(C(=O)N2CCCC2=O)cc1 | inactive
C[C@]12Cc3cn[nH]c3C[C@@H]1CC[C@@H]1[C@@H]2CC[C@@]2(C)[C@H]1CC[C@]2(C)O | inactive
CN1C(=O)CCS(=O)(=O)C1c1ccc(Cl)cc1 (stereo not given) | inactive

Ask | Per the assay record, what outcome was assigned to O=C(N[C@H]1CN2CCC1CC2)c1ccc(Cl)cc1 ?
Reply | inactive

Ask | Per the assay record, what outcome was assigned to C#CCN(C)[C@H](C)Cc1ccccc1 ?
Reply | inactive

Ask | Per the assay record, what outcome was assigned to CCCN1CCO[C@@H]2c3cc(O)ccc3OC[C@H]21 ?
Reply | inactive

Ask | Per the assay record, what outcome was assigned to COC1(CS(=O)c2ccccc2)CCN(CCc2c[nH]c3ccc(F)cc23)CC1 (stereo not given) ?
Reply | inactive

Ask | Per the assay record, what outcome was assigned to COc1cc2c(cc1F)C(c1ccccc1Cl)=Nc1c(n[nH]c1C)N2 ?
Reply | active

* * *

System: Aerobactin synthetase IucA (Klebsiella pneumoniae hvKP1)
Assay: Biochemical IucA enzyme inhibition primary screen of the Spectrum library (AID 1346200);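 note: 100% = wells without compound and 0% = wells lacking enzyme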
Details: malachite green pyrophosphate, A620, at 8 µM, stronger effect = lower value
Measured attribute: activity remaining (%)
// note: answer is a bare numeric in %

Molecule | activity remaining (%)
COc1cc([C@@H]2c3cc4c(cc3[C@@H](O)C3COC(=O)C32)OCO4)cc(OC)c1O (stereo partly specified) | 118
COc1ccc2c(c1)OCC(Cc1ccc(OC)c(OC(C)=O)c1)C2=O (stereo unspecified) | 113
NC(N)=NC(N)=Nc1ccccc1 | 123
COC(=O)/C(=C1\OC(=O)C(c2ccccc2)C1=O)c1ccccc1 (stereo unspecified) | 106

Ask | Any idea what its activity remaining is? The molecule is O=C(CCBr)N1CCN(C(=O)CCBr)CC1
Reply | 107

Ask | Any idea what its activity remaining is? The molecule is CC1(C)S[C@@H]2[C@H](NC(=O)Cc3ccccc3)C(=O)N2[C@H]1C(=O)O
Reply | 111

Ask | Any idea what its activity remaining is? The molecule is O=c1oc2c(O)c(O)cc3c(=O)oc4c(O)c(O)cc1c4c23
Reply | 91.8
